# Test system: HCT-116 colon
# method notes: NCI tumour cell line growth inhibition, 48 h; in the data active = GI50 below about 0.43 µM; inactive = the rest
Form entry, call: pick from label 1 (active), label 0 (inactive)

# lookup: test call for O=C1CC(c2ccc(N3CCOCC3)cc2)(c2ccsc2)NC(=O)C1Sc1ccccc1Cl (stereo not given) label 0

# lookup: test call for Cc1cc(N2CCCCC2)nc(N(CCCNc2ccnc3cc(Cl)ccc23)Cc2ccco2)n1 label 0

# lookup: test call for COc1cc2nc(-c3cnc(N(C)C)nc3)nc(NC3CCN(Cc4ccccc4)CC3)c2cc1OC label 1

# lookup: test call for CC1=C(C(=O)Nc2ccc(F)c(Cl)c2)C(c2ccccc2Cl)NC(=S)N1 (stereo not given) label 0

# lookup: test call for CC(=O)[CH-]C(=O)c1ccccc1.CC(=O)[CH-]C(=O)c1ccccc1.CC[O-].CC[O-].[Zr+4] label 0
